Values from patent US8507464B2

format: physicochemical; details: scan rate 100 mV/sec, glassy carbon, Ag/AgCl reference
Below: a set of entries, each annotated with reported Reduction Potentials, 100 mV/sec.
Expressed in mV, but write only the number.

Examples from the recorded data:
{"columns": ["molecule", "recorded-measurement"],
 "data": [
  ["Cn1c(COP2(=O)N(CCBr)CCN2CCBr)cnc1[N+](=O)[O-]", "−614"],
  ["CC(OP(=O)(NCCBr)NCCBr)c1ccc([N+](=O)[O-])s1 (stereo not shown)", "−559"],
  ["Cn1c(COP(=O)(NCCCl)NCCCl)cnc1[N+](=O)[O-]", "−609"]
]}

From here, focus on the item given below.
Q: Specify measured Reduction Potentials, 100 mV/sec for CN(CCCl)P(=O)(OCc1cnc([N+](=O)[O-])n1C)N(C)CCCl .
Ans: −606

###

system: NCI-H460 cells; assay: Antiproliferation assay (Alamar Blue), anoxia vs air; conditions: read-out: IC50 H460 Anoxia; anoxia, 2 h exposure
assay-endpoint: IC50 (nM)
Expressed in nM, but write only the number.

Examples from the recorded data:
{"columns": ["molecule", "recorded-measurement"],
 "data": [
  ["O=[N+]([O-])c1ccsc1COP(=O)(NCCBr)NCCBr [Compound 86]", 1400],
  ["CC#Cc1cc(COP(=O)(NCCBr)NCCBr)sc1[N+](=O)[O-] [Compound 99]", 100]
]}

Q: Specify measured IC50 for CC(OP(=O)(NCCBr)NCCBr)c1ncc([N+](=O)[O-])n1C (stereo not drawn) [Compound 85] .
Ans: 700
